All values here come from paper PMC3443238.

Measurement record for human placenta alkaline phosphatase (HPAP) (Homo sapiens); quantity recorded: pIC50.
pIC50: −log10 of the molar value. Where a name gives a salt, the structure may show the parent alone.

{"COMPOUND": "Brc1ccc([C@H]2CN3CCSC3=N2)cc1 [Compound 3, (–)-p-bromolevamisole oxalate, reference compound]", "pIC50": 3.15}
{"COMPOUND": "CC(C)[N+]1=C2SCCN2C[C@@H]1c1ccccc1", "pIC50": "< 2.70"}
{"COMPOUND": "c1ccc(C[N+]2=C3SCCN3C[C@@H]2c2ccccc2)cc1 [Compound 11b, N-benzyllevamisole trifluoroacetate]", "pIC50": "< 2.70"}
{"COMPOUND": "C[N+]1=C2SCCN2C[C@@H]1c1ccccc1 [Compound 7a, N-methyllevamisole triflate]", "pIC50": "< 2.70"}
{"COMPOUND": "C[N+]1=C2SCCN2C[C@@H]1c1ccccc1 [Compound 7b, N-methyllevamisole trifluoroacetate]", "pIC50": "< 2.70"}
{"COMPOUND": "CC[N+]1=C2SCCN2C[C@@H]1c1ccccc1 [Compound 8a, N-ethyllevamisole iodide]", "pIC50": "< 2.70"}
{"COMPOUND": "c1ccc(C2CN3CCSC3=N2)cc1 (racemic) [Compound 2, (±)-levamisole, reference compound]", "pIC50": 2.92}
{"COMPOUND": "c1ccc([C@H]2CN3CCSC3=[N+]2CC2CCCCC2)cc1 [Compound 12, (S)-N-Cyclohexylmethylenelevamisole]", "pIC50": "< 2.70"}
{"COMPOUND": "c1ccc([C@H]2CN3CCSC3=N2)cc1 [Compound 1, (S)-levamisole hydrochloride, reference compound]", "pIC50": 2.96}

* * *

These records show pIC50 for UniProtKB P09487.
Sequence (P09487 18-499 limits assumed): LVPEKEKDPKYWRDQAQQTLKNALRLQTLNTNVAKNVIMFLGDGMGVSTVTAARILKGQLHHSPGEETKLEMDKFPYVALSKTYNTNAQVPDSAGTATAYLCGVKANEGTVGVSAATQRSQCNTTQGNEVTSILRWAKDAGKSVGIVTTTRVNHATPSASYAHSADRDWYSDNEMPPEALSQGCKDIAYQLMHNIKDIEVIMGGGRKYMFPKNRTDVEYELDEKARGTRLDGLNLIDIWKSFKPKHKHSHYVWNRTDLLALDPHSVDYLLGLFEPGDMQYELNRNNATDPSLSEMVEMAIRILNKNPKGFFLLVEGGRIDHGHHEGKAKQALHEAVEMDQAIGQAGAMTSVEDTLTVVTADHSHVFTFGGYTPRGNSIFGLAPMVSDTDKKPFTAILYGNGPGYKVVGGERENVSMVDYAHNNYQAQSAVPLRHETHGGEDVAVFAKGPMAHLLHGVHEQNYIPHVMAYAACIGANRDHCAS
pIC50: −log10 of the molar value. Structures can show the parent of a compound that is named as a salt.

{"COMPOUND": "CC[N+]1=C2SCCN2C[C@@H]1c1ccccc1 [Compound 8a, N-ethyllevamisole iodide]", "pIC50": "< 2.70"}
{"COMPOUND": "Brc1ccc([C@H]2CN3CCSC3=N2)cc1 [Compound 3, (–)-p-bromolevamisole oxalate, reference compound]", "pIC50": "< 2.70"}
{"COMPOUND": "c1ccc(C2CN3CCSC3=N2)cc1 (racemic) [Compound 2, (±)-levamisole, reference compound]", "pIC50": 3.00}
{"COMPOUND": "c1ccc([C@H]2CN3CCSC3=N2)cc1 [Compound 1, (S)-levamisole hydrochloride, reference compound]", "pIC50": 3.22}
{"COMPOUND": "CC(C)[N+]1=C2SCCN2C[C@@H]1c1ccccc1", "pIC50": "< 2.70"}
{"COMPOUND": "Cc1ccc(C(=O)Nc2ccc(S(=O)(=O)O)c3cc(S(=O)(=O)O)cc(S(=O)(=O)O)c23)cc1NC(=O)c1cccc(NC(=O)Nc2cccc(C(=O)Nc3cc(C(=O)Nc4ccc(S(=O)(=O)O)c5cc(S(=O)(=O)O)cc(S(=O)(=O)O)c45)ccc3C)c2)c1 [Compound 5, suramin, reference compound]", "pIC50": "< 2.70"}
{"COMPOUND": "c1ccc(C[N+]2=C3SCCN3C[C@@H]2c2ccccc2)cc1 [Compound 11b, N-benzyllevamisole trifluoroacetate]", "pIC50": "< 2.70"}
{"COMPOUND": "C[N+]1=C2SCCN2C[C@@H]1c1ccccc1 [Compound 7b, N-methyllevamisole trifluoroacetate]", "pIC50": "< 2.70"}
{"COMPOUND": "C[N+]1=C2SCCN2C[C@@H]1c1ccccc1 [Compound 7a, N-methyllevamisole triflate]", "pIC50": 4.00}
{"COMPOUND": "c1ccc([C@H]2CN3CCSC3=[N+]2CC2CCCCC2)cc1 [Compound 12, (S)-N-Cyclohexylmethylenelevamisole]", "pIC50": "< 2.70"}
